# Test system: CCRF-CEM leukemia
# procedure_details: NCI tumour cell line growth inhibition, 48 h
Where a SMILES comes first, the peptide text is derived from it. [ ]: non-standard residue; d: D form. Ac5c = NC1(C(=O)O)CCCC1

- molecule: "NC1(C(=O)NC2(C(=O)O)CCCC2)CCCC1 (H-[Ac5c]-[Ac5c]-OH)"
  TGI: "> 100 µM"
- molecule: "COc1cc(C(=O)/C(C)=C/c2c[nH]c3ccccc23)cc(OC)c1OC"
  TGI: "> 100 µM"
- molecule: "CCOC(=O)c1cc(C#N)c(=O)n(/N=C(\\C)c2ccncc2)c1O"
  TGI: "> 100 µM"

* * *

# Tested on: MALME-3M melanoma
# procedure_details: NCI tumour cell line growth inhibition, 48 h
test_readout: TGI

- substance_smiles: "O=c1c2c(nc3n1CCS3)[nH]c1ccccc12"
  test_readout: "TGI"
  reported: "> 100 µM"
- substance_smiles: "CC(=O)CC(=O)Nc1ccc2ccccc2c1"
  test_readout: "TGI"
  reported: "> 100 µM"
- substance_smiles: "CC[C@H](NC(=O)[C@H](C)NC)C(=O)N1C[C@@H](O)C[C@H]1Cc1c(-c2[nH]c3cc(F)ccc3c2C[C@@H]2C[C@H](O)CN2C(=O)[C@H](CC)NC(=O)[C@H](C)NC)[nH]c2cc(F)ccc12"
  test_readout: "TGI"
  reported: "> 100 µM"

* * *

Catalogue of TGI readings, one per entry.
# System: EKVX NSCLC
# procedure_details: NCI tumour cell line growth inhibition, 48 h

- compound: "O=C1c2ccccc2-c2cccc3ccc(Cc4ccc5ccccc5c4)c1c23"
  TGI: "> 100 µM"
- compound: "CC1C[C@@]2(c3ccccc3)C(=O)CCC[C@H]2N1 (stereo not given in full)"
  TGI: "> 100 µM"
- compound: "CCOC(=O)C(Cc1c[nH]c2ccc(N)cc12)(NC(C)=O)C(=O)OCC"
  TGI: "> 1000 µM"
- compound: "CCN(CC)CSc1nc2ccccc2o1"
  TGI: "> 100 µM"
- compound: "Cc1cc(C)nc(NS(=O)(=O)c2ccc(Nc3c4ccccc4nc4c(C(=O)NNCCO)cccc34)cc2)n1"
  TGI: "> 100 µM"

* * *

# Tested on: SN12C renal
# procedure_details: NCI tumour cell line growth inhibition, 48 h; in the data active means GI50 below about 0.43 µM; inactive means the rest
Labels: active, inactive

- substance_smiles: "O=c1c2cc(Cl)ccc2oc2ccc(OCCCCCN3CCCCC3)cc12"
  assayed_system: "SN12C renal"
  assigned_class: "inactive"
- substance_smiles: "O=C(/C=C/c1ccc(F)cc1)c1ccc(Cl)cc1Cl"
  assayed_system: "SN12C renal"
  assigned_class: "inactive"
- substance_smiles: "Cc1ccccc1NC(=O)N/C(N)=N/c1nc(-c2cccc([N+](=O)[O-])c2)cs1"
  assayed_system: "SN12C renal"
  assigned_class: "inactive"
- substance_smiles: "Cc1nc2sc(C(=O)Nc3cccc(Cl)c3C)c(N)c2cc1C(=O)/C=C/c1ccccc1"
  assayed_system: "SN12C renal"
  assigned_class: "inactive"
- substance_smiles: "CCOC(=O)C(Cc1c[nH]c2ccc(N)cc12)(NC(C)=O)C(=O)OCC"
  assayed_system: "SN12C renal"
  assigned_class: "inactive"
- substance_smiles: "CO[C@@H]1/C=C\\C=C(/C)C(=O)NC2=CC(=O)C(NCCN(C)C)=C(C[C@@H](C)C[C@@H](OC)[C@@H](O)[C@H](C)/C=C(\\C)[C@H]1OC(N)=O)C2=O"
  assayed_system: "SN12C renal"
  assigned_class: "active"
- substance_smiles: "COc1cc(OC)c(/C=C/S(=O)(=O)Cc2cnc(OC)c(N)c2)c(OC)c1"
  assayed_system: "SN12C renal"
  assigned_class: "active"
